For each entry below, report its CC50 at 48 h value.
- experiment description: MTS tetrazolium reduction cell viability assay
- run parameters: rat, rat mesangial cells (1097/IRMC cells), TGF-β1 stimulated, CC50 (μM), vs 1% DMSO vehicle

Challenge: Which CC50 at 48 h is listed for COc1ccc(/C=C/C(=O)Nc2ccccc2C(=O)O)cc1OCc1cnn(C)c1 [Example 66] ?
Response given: > 300 µM

Challenge: How about this molecule: C#CCOc1ccc(/C=C/C(=O)Nc2ccccc2-c2c[nH]cn2)cc1OC [Example 25]
Response given: > 300 µM

Challenge: Also need COc1cc(/C=C/C(=O)Nc2ccccc2C(=O)O)ccc1OCc1ccccn1 [Example 55] , thanks.
Response given: 86.1 µM

Challenge: Would you mind doing C#CCOc1ccc(/C=C/C(=O)Nc2ccccc2C(=O)Nc2ccn(C)n2)cc1OC [Example 48] as well?
Response given: 309 µM

Challenge: Same question, COc1ccc(/C=C/C(=O)Nc2cc(Cl)ccc2C(=O)O)c(OCCN(C)C)c1OC [Example 117] this time
Response given: > 300 µM

Challenge: Request: COc1ccc(/C=C/C(=O)Nc2ccccc2C(=O)O)c(OCc2cccnc2)c1OC [Example 96]
Response given: > 300 µM

Challenge: Try this molecule next: C#CCOc1ccc(C2CC2C(=O)n2nc(O)c3ccccc32)cc1OC (stereo not drawn) [Example 134]
Response given: > 300 µM

Challenge: Try COc1cc(/C=C/C(=O)Nc2ccccc2C(=O)O)ccc1OCc1ccnn1C [Example 60] next.
Response given: 100 µM

Challenge: One more molecule: C#CCOc1ccc(/C=C/C(=O)Nc2ccccc2C(=O)NCCCN(C)C)cc1OC [Example 32]
Response given: 32 µM

Challenge: And what about the molecule C#CCOc1ccc(/C=C/C(=O)Nc2ccccc2C(=O)NCc2cccnc2)cc1OC [Example 43] ?
Response given: > 300 µM

Challenge: Okay, and C#CCOc1c(/C=C/C(=O)Nc2ccccc2C(=O)O)ccc(OC)c1OC [Example 95] ?
Response given: 111 µM

Challenge: Query C#CCNCc1ccc(/C=C/C(=O)Nc2ccccc2C(=O)O)cc1OC [Example 75] next
Response given: > 300 µM

Challenge: Next molecule up: C#CCOc1ccc(/C=C/C(=O)Nc2ccc(F)cc2)cc1CC [Example 125]
Response given: > 300 µM

Challenge: Same for CN1Cc2ccc(/C=C/C(=O)Nc3ccccc3C(=O)O)cc2C1=O [Example 108]
Response given: > 300 µM

Challenge: # iterate: COc1cc(/C=C/C(=O)Nc2ccccc2C(=O)O)ccc1CC1CC1 [Example 102]
Response given: 11.4 µM

Challenge: What do you get for C#CCOc1ccc(/C=C/C(=O)N2CCCc3ccccc32)cc1OC [Example 10] ?
Response given: 66.4 µM

Challenge: Let us now turn to C#CCNCc1cc(/C=C/C(=O)Nc2ccccc2C(=O)O)ccc1OC [Example 74]
Response given: 319 µM

Challenge: Lookup C#CCOc1ccc(/C=C/C(=O)N2CCNc3ccccc32)cc1OC [Example 11]
Response given: 104 µM

---

- experiment description: MTS tetrazolium reduction cell viability assay
- run parameters: rat, rat mesangial cells (1097/IRMC cells), TGF-β1 stimulated, CC50 (μM), vs 1% DMSO vehicle
Please go through the items and note down their CC50 at 48 h.

Challenge: Given the entry C#CCOc1ccc(/C=C/C(=O)Nc2ccccc2C(=O)O)c(OCCN2CCOCC2)c1OC [Example 84] , report its measured CC50 at 48 h.
Response given: > 300 µM

Challenge: What do you get for COCc1cc(/C=C/C(=O)Nc2ccccc2C(=O)O)ccc1OC [Example 73] ?
Response given: > 300 µM

Challenge: What would you report for C#CCOc1ccc(/C=C/C(=O)Nc2ccccc2-n2cnc(C)n2)cc1OC [Example 23] ?
Response given: 104 µM
